IC50 values by entry
Target: T1, beta-catenin (full-length, Uniprot ID P35222) (Homo sapiens (Human), UniProt P35222 2-781)
T1 construct: The FP protocol says 'full-length beta-Catenin (Uniprot ID P35222)'; also called bCat; B-Catenin
T1 sequence: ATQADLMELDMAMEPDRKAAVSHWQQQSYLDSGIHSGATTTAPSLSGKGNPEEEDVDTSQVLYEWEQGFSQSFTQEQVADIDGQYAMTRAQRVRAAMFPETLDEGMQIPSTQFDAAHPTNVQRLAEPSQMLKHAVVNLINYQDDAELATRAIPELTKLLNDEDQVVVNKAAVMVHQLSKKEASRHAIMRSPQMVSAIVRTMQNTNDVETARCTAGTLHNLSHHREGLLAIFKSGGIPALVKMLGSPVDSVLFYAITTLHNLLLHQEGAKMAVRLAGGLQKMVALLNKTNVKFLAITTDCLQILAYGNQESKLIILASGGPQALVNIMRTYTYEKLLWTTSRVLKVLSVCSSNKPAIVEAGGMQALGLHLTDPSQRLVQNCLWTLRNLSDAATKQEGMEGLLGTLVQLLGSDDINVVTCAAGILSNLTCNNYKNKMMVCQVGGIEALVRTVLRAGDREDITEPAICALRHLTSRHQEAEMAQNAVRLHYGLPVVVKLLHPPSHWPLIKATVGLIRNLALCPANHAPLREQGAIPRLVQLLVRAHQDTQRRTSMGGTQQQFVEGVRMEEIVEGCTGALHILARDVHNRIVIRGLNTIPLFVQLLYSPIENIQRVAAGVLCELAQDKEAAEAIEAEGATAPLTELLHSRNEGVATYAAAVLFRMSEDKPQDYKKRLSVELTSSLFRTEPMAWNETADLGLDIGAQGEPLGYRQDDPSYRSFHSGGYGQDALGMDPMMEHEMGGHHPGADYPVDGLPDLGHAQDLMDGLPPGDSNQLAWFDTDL
Experiment: fluorescence polarization competition vs 5FAM-TCF4(10-53) on full-length beta-catenin
Starred links: 1 amine or outer side, 2 acyl side, 3 side chain; linkers in the order of their positions; H or OH if unused. Positions of bridges follow the written chain, without caps; N, C: chain ends. Non-standard residues stand in square brackets, D forms with d. Primed or numbered codes have the meaning given here. B5(4) = 2,2-bis(4-pentenyl)glycine = 2-amino-2-(pent-4-en-1-yl)hept-6-enoic acid (stitching residue), C=CCCCC(CCCC=C)(N[*:1])C(=O)[*:2]; Qui = (S)-2-amino-3-(quinolin-2-yl)propanoic acid, O=C([C@H](Cc1ccc2ccccc2n1)N[*:1])[*:2]; αAllylPro = C=CC[C@@]1(C(=O)O)CCCN1; S8 = C=CCCCCCC[C@](C)(N)C(=O)O
Kindly answer with a numeric value in nM, unit omitted.

{"columns": ["binder", "IC50, nM"],
 "data": [
  ["Ac-[αAllylPro]DA[B5(4)]DEAAFV[S8]FWA-NH2 (staple 1-4, 4-11, Stapled peptide) [I-135: Ac-PL3-Asp-Ala-B5-Asp-Glu-Ala-Ala-Phe-Val-S8-Phe-Trp-Ala-NH2]", 1870]
]}

stdin: Identify measured IC50 associated with Ac-[αAllylPro]DA[B5(4)]DEAAFV[S8]F[Qui]Q-NH2 (staple 1-4, 4-11, Stapled peptide) [I-143: Ac-PL3-Asp-Ala-B5-Asp-Glu-Ala-Ala-Phe-Val-S8-Phe-Qui-Gln-NH2]
stdout: 2270

stdin: Give the reported IC50 for this binder. XDAXDEAAFVXFWX (not fully specified; N-terminal Ac; PL3 at 1; B5 at 4; S8 at 11; Aib at 14; C-terminal NH2; stapled by olefin metathesis (PL3-B5 and B5-S8), Stapled peptide) [I-133: Ac-PL3-Asp-Ala-B5-Asp-Glu-Ala-Ala-Phe-Val-S8-Phe-Trp-Aib-NH2]
stdout: 5000
